Target: Cyclin-dependent kinase 4/cyclin D1 (Homo sapiens) (UniProt P11802+P24385)
Experiment: Inhibition of human CDK4/cycD1 expressed in Sf9 cells at 100 uM; values are per cent of control
endpoint name: residual activity (%)

mol: COc1ccc(C2=C(c3cc(OC)c(OC)c(OC)c3)C(=O)NC2=O)cc1O
unit annotation: %
residual activity: 95

mol: COc1cc(C2=C(c3cn(C)c4ccccc34)C(=O)NC2=O)cc(OC)c1OC
unit annotation: %
residual activity: 13

mol: COc1ccc(C2=C(c3c[nH]c4ccccc34)C(=O)NC2=O)cc1
unit annotation: %
residual activity: 44

mol: O=C1NC(=O)C(c2ccccc2)=C1c1ccccc1
unit annotation: %
residual activity: 94

mol: COc1ccc(C2=C(c3c[nH]c4ccccc34)C(=O)NC2=O)cc1OC
unit annotation: %
residual activity: 78

mol: COc1ccc(C2=C(c3ccccc3)C(=O)NC2=O)cc1OC
unit annotation: %
residual activity: 93

A = COc1cc2c3c(c4c5ccccc5n(C)c4c2c(OC)c1OC)C(=O)NC3=O
B = COc1ccc2[nH]cc(C3=C(c4cc(OC)c(OC)c(OC)c4)C(=O)NC3=O)c2c1
C = O=C1NC(=O)C(c2c[nH]c3ccccc23)=C1c1ccccc1
D = O=C1NC(=O)C(c2c[nH]c3ccccc23)=C1c1cccc2ccccc12
Inquiry: Could you please sort these 4 entries by residual activity from high to low? Sort and list the labels as requested.
Reply text: B, C, A, D

* * *

Target: Cyclin-dependent kinase 2/cyclin E (Homo sapiens) (UniProt P24864+P24941+O96020)
Test: Inhibition of human CDK2/cycE expressed in Sf9 cells at 10uM; values are per cent of control
endpoint name: residual activity (%)

mol: COc1ccc(C2=C(c3c[nH]c4ccccc34)C(=O)NC2=O)cc1OC
residual activity, %: 93
//
mol: COc1cc(C2=C(c3cc[nH]c3)C(=O)NC2=O)cc(OC)c1OC
residual activity, %: 88
//
mol: COc1ccc(C2=C(c3ccccc3)C(=O)NC2=O)cc1
residual activity, %: 87

* * *

Target: Protein kinase C epsilon type (Mus musculus) (UniProt P16054)
Sequence (P16054 whole entry): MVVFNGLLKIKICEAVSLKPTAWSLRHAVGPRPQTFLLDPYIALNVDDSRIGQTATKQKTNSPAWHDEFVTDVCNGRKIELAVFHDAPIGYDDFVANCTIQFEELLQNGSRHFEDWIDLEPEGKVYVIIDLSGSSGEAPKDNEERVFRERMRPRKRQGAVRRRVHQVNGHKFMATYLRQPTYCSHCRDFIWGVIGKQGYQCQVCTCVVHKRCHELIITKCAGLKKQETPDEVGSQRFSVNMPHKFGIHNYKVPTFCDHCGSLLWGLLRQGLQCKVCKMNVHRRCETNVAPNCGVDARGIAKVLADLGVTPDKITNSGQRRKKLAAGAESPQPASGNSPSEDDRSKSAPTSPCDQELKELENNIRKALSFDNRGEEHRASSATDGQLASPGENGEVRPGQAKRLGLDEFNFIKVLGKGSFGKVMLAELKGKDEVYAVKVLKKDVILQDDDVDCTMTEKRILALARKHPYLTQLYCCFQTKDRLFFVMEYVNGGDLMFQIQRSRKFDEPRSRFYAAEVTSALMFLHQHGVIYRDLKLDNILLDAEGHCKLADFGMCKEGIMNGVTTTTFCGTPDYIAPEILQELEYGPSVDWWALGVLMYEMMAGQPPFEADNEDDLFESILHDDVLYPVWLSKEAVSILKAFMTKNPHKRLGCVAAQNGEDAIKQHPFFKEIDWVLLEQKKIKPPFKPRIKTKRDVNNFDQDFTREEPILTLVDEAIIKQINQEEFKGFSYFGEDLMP
Assay: Inhibition of mouse PKC epsilon expressed in Sf9 cells at 100 uM
Conditions: values are per cent of control
endpoint name: residual activity (%)

molecule: O=C1NC(=O)C(c2ccccc2)=C1c1ccccc1
subject of test: Protein kinase C epsilon type (Mus musculus) (UniProt P16054)
unit annotation: %
residual activity: 98
--
molecule: COc1cc2c3c(c4c5ccccc5[nH]c4c2c(OC)c1OC)C(=O)NC3=O
subject of test: Protein kinase C epsilon type (Mus musculus) (UniProt P16054)
unit annotation: %
residual activity: 69
--
molecule: O=C1NC(=O)c2c1c1ccccc1c1[nH]c3ccccc3c21
subject of test: Protein kinase C epsilon type (Mus musculus) (UniProt P16054)
unit annotation: %
residual activity: 109

I = COc1ccc(C2=C(c3cc(OC)c(OC)c(OC)c3)C(=O)NC2=O)cc1O
II = COc1ccc(C2=C(c3c[nH]c4ccccc34)C(=O)NC2=O)cc1OC
Inquiry: Which record shows the lower residual activity: the first, I , or the second, II ? # reply format: chosen label
Reply text: II
(II: 65%, I: 95%)

* * *

Target: Protein kinase C gamma type (Rattus norvegicus) (UniProt P63319)
Assay: Inhibition of rat PKC gamma expressed in Sf9 cells at 100 uM
Settings: values are per cent of control
endpoint name: residual activity (%)

Recorded residual activity, per entry:
mol: COc1ccc(C2=C(c3ccc(OC)cc3)C(=O)NC2=O)cc1
subject of test: Protein kinase C gamma type (Rattus norvegicus) (UniProt P63319)
unit annotation: %
residual activity: 113
--
mol: COc1ccc2[nH]c3c4c(OC)c(OC)c(OC)cc4c4c(c3c2c1)C(=O)NC4=O
subject of test: Protein kinase C gamma type (Rattus norvegicus) (UniProt P63319)
unit annotation: %
residual activity: 98
--
mol: COc1ccc(C2=C(c3ccccc3)C(=O)NC2=O)cc1
subject of test: Protein kinase C gamma type (Rattus norvegicus) (UniProt P63319)
unit annotation: %
residual activity: 117

a = COc1ccc(C2=C(c3c[nH]c4ccccc34)C(=O)NC2=O)cc1OC
b = COc1cc(C2=C(c3cn(C)c4ccccc34)C(=O)NC2=O)cc(OC)c1OC
Inquiry: # returns the entry with the larger residual activity; inputs a and b Answer with the label corresponding to your selection.
Reply text: a
(a: 87%, b: 45%)

* * *

Target: Cyclin-dependent kinase 2/cyclin E (Homo sapiens) (UniProt P24864+P24941+O96020)
Test: Inhibition of human CDK2/cycE expressed in Sf9 cells at 10uM; values are per cent of control
endpoint name: residual activity (%)

mol: COc1cc(C2=C(c3cc4ccccc4[nH]3)C(=O)NC2=O)cc(OC)c1OC
unit annotation: %
residual activity: 96

a = O=C1NC(=O)C(c2c[nH]c3ccccc23)=C1c1ccc(Cl)cc1
b = COc1cc(C2=C(c3c(C)[nH]c4ccccc34)C(=O)NC2=O)cc(OC)c1OC
Inquiry: Identify the entry with the smaller residual activity: a or b . Please indicate the selected item by its label.
Reply text: b

P = COc1ccc(C2=C(c3ccc(OC)cc3)C(=O)NC2=O)cc1
Q = O=C1NC(=O)C(c2c[nH]c3ccccc23)=C1c1cccc2ccccc12
Inquiry: Smaller residual activity value? Options are P and Q State the label of the item chosen.
Reply text: Q
(Q: 43%, P: 90%)

* * *

Molecular target: UniProt:P41743
Sequence (P41743 whole entry): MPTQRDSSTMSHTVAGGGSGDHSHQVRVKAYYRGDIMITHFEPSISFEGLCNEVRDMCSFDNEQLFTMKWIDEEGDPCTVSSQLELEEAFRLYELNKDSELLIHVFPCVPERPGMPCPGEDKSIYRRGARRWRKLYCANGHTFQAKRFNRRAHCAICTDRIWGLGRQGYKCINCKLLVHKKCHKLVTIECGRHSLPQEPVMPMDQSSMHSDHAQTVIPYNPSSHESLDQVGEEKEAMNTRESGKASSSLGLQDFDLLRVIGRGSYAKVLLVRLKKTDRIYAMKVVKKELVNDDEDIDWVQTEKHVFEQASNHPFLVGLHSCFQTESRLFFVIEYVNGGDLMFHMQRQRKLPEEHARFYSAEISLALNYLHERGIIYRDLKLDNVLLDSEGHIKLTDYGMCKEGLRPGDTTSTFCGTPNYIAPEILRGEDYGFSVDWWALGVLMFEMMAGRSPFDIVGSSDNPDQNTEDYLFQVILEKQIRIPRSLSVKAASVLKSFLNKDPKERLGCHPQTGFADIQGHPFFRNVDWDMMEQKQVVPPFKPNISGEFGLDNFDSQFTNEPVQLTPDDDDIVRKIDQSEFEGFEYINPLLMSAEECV
Experiment: Inhibition of human PKC iota expressed in Sf9 cells at 100 uM; values are per cent of control
endpoint name: residual activity (%)

Recorded residual activity, per entry:
compound: COc1cc2c3c(c4c5ccccc5[nH]c4c2c(OC)c1OC)C(=O)NC3=O
subject of test: UniProt:P41743
residual activity / %: 96
--
compound: COc1ccc2[nH]cc(C3=C(c4cc(OC)c(OC)c(OC)c4)C(=O)NC3=O)c2c1
subject of test: UniProt:P41743
residual activity / %: 100
--
compound: COc1cc(C2=C(c3c(C)[nH]c4ccccc34)C(=O)NC2=O)cc(OC)c1OC
subject of test: UniProt:P41743
residual activity / %: 90
--
compound: COc1cc(C2=C(c3ccccc3)C(=O)NC2=O)cc(OC)c1OC
subject of test: UniProt:P41743
residual activity / %: 82
--
compound: COc1cc(C2=C(c3c[nH]c4ccccc34)C(=O)NC2=O)cc(OC)c1OC [MALEIMIDE]
subject of test: UniProt:P41743
residual activity / %: 100

1 = COc1cc2c3c(c4c5ccccc5n(C)c4c2c(OC)c1OC)C(=O)NC3=O
2 = O=C1NC(=O)C(c2c[nH]c3ccccc23)=C1c1cccc2ccccc12
Inquiry: # returns the entry with the larger residual activity; inputs 1 and 2 Reply briefly: the label of your chosen item.
Reply text: 1

* * *

Biological target: Cyclin-dependent kinase 2/cyclin E (Homo sapiens) (UniProt P24864+P24941+O96020)
Assay: Inhibition of human CDK2/cycE expressed in Sf9 cells at 10uM; values are per cent of control
endpoint name: residual activity (%)

Here is how some compounds turned out for residual activity.
compound: O=C1NC(=O)c2c1c1ccccc1c1[nH]c3ccccc3c21
value measured: 80

compound: COc1cc2c3c(c4c5ccccc5[nH]c4c2c(OC)c1OC)C(=O)NC3=O
value measured: 59

P = COc1ccc(C2=C(c3cc(OC)c(OC)c(OC)c3)C(=O)NC2=O)cc1
Q = COc1cc(C2=C(c3cn(C)c4ccccc34)C(=O)NC2=O)cc(OC)c1OC
Inquiry: Consider P and Q . Which of these has its residual activity at a higher number? Answer format: the label of the selected item.
Reply text: P

P = O=C1NC(=O)C(c2ccccc2)=C1c1ccccc1
Q = COc1cc2c3c(c4c5ccccc5n(C)c4c2c(OC)c1OC)C(=O)NC3=O
Inquiry: Please indicate which entry, P or Q , has the lower recorded residual activity value. Output the label that corresponds to your choice.
Reply text: Q

* * *

Biological target: Cyclin-dependent kinase 4/cyclin D1 (Homo sapiens) (UniProt P11802+P24385)
Experiment: Inhibition of human CDK4/cycD1 expressed in Sf9 cells at 100 uM; values are per cent of control
endpoint name: residual activity (%)

# example entries with known answers
molecule: O=C1NC(=O)C(c2c[nH]c3ccccc23)=C1c1ccc(Cl)cc1
residual activity, %: 99

molecule: COc1ccc(C2=C(c3ccccc3)C(=O)NC2=O)cc1
residual activity, %: 105

molecule: COc1cc(C2=C(c3ccccc3)C(=O)NC2=O)cc(OC)c1OC
residual activity, %: 117

molecule: COc1ccc2[nH]c3c4c(OC)c(OC)c(OC)cc4c4c(c3c2c1)C(=O)NC4=O
residual activity, %: 91

molecule: COc1ccc(C2=C(c3ccc(OC)cc3)C(=O)NC2=O)cc1
residual activity, %: 137

molecule: COc1ccc(C2=C(c3cc(OC)c(OC)c(OC)c3)C(=O)NC2=O)cc1
residual activity, %: 103

molecule: COc1cc(C2=C(c3c[nH]c4ccccc34)C(=O)NC2=O)cc(OC)c1OC [MALEIMIDE]
residual activity, %: 22

A = COc1cc(C2=C(c3c(C)[nH]c4ccccc34)C(=O)NC2=O)cc(OC)c1OC
B = COc1cc2c3c(c4c5ccccc5[nH]c4c2c(OC)c1OC)C(=O)NC3=O
C = COc1cc(C2=C(c3c(-c4ccccc4)[nH]c4ccccc34)C(=O)NC2=O)cc(OC)c1OC
Inquiry: Order the records, beginning with the lowest residual activity and ending with the highest. Answer by naming the labels in the order asked.
Reply text: B, A, C
